- Measured On: ABHD6 (Mus musculus, UniProt Q8R2Y0)
- Construct: Proteomes (mouse brain membrane fraction or cell lysates); from tissue; host or cells: mouse brain membrane fraction (or cell lysates, not specified)
- Sequence (Q8R2Y0 1-336): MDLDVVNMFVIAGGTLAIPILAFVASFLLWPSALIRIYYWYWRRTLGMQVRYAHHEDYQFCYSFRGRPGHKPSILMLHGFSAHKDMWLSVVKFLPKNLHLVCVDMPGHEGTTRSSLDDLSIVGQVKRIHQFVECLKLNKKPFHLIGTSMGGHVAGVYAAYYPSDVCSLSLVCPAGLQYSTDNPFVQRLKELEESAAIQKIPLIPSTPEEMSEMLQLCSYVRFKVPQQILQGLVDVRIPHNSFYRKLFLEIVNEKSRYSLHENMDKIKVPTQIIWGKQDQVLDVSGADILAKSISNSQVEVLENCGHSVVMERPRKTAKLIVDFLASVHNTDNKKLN
- Test Description: In vitro competitive activity-based protein profiling (gel-based, FP-Rh or HT-01 probe)
- Type: biochemical
- Experimental Context: 10 μM inhibitor; read-out: % Inhibition at 10 μM, C = ABHD6
Assay Endpoint: inhibition at 10 µM

For orientation, consider the following solved cases.
> print(dat)
                                   molecule       assay.endpoint  recorded.value
1  O=C(c1ccccc1)N1CCN(C(=O)n2cc(Cl)cn2)CC1 [Example 187]  inhibition at 10 µM       25 to 75%
2  COc1cc(-c2ccccc2)ccc1CN1CCN(C(=O)n2cc(C#N)cn2)CC1 [Example 145]  inhibition at 10 µM           > 75%
3  CC(=O)N1CCCN(C(=O)n2cc(C)cn2)CC1 [Example 165]  inhibition at 10 µM           < 25%
4  CS(=O)(=O)N1CCN(C(=O)n2cc(C#N)cn2)CC1 [Example 174]  inhibition at 10 µM           > 75%

What value of inhibition at 10 µM has been reported for the following molecule? Cc1ccccc1-c1cnn(C(=O)N2CCN(Cc3c(N4CCCC4)cccc3C(F)(F)F)CC2)c1 [Example 114]
> 75%

What value of inhibition at 10 µM has been reported for the following molecule? O=C(N1CCCCC1)n1cc(C(F)(F)F)cn1 [Example 200]
> 75%

What value of inhibition at 10 µM has been reported for the following molecule? N#Cc1cnn(C(=O)NCCCCCc2ccccc2)c1 [Example 39]
< 25%

What value of inhibition at 10 µM has been reported for the following molecule? Cc1cnn(C(=O)Nc2ccc3ccccc3c2)c1 [Example 41]
< 25%

What value of inhibition at 10 µM has been reported for the following molecule? COc1cc(-c2ccccc2)ccc1CN1CCN(C(=O)n2cc(Cl)cn2)CC1 [Example 141]
> 75%

What value of inhibition at 10 µM has been reported for the following molecule? Cc1cnn(C(=O)N(C)CCN(C)S(C)(=O)=O)c1 [Example 196]
< 25%

What value of inhibition at 10 µM has been reported for the following molecule? CS(=O)(=O)N1CCN(C(=O)n2cc(Cl)cn2)CC1 [Example 184]
> 75%

What value of inhibition at 10 µM has been reported for the following molecule? CC(C)(C)OC(=O)N1CCN(C(=O)n2cccn2)CC1 [Example 4]
> 75%

What value of inhibition at 10 µM has been reported for the following molecule? CC(=O)N1CCN(C(=O)n2cc(C(F)(F)F)cn2)CC1 [Example 149]
25 to 75%
